shrunken log2 fold change for assorted sequences
# System: Escherichia coli TOP10
# test.method.notes: shrunken log2 fold change of peptide-encoding DNA abundance (4.5 h post-induction vs induction); higher = less antimicrobial activity (less host growth inhibition)
# condition: time post-induction: 4.5 h; library: site-saturation at positions 5, 18, 19, 20

Observe how each entry below is paired with its result.
Request: Report shrunken log2 fold change for `RRIRHRPPRLPRPRPRPCWFPRP` please.
Result: -0.499

Request: Which value of shrunken log2 fold change has been reported for `RRIRLRPPRLPRPRPRPKCTPRP` in the records?
Result: 0.0446

Request: Query (sequence): `RRIRQRPPRLPRPRPRPSRKPRP` ; field requested: shrunken log2 fold change
Result: 0.111

Request: Look up shrunken log2 fold change for this sequence: `RRIRHRPPRLPRPRPRPTWEPRP`
Result: 0.0143

# ---- query sequence ----
Request: # input sequence: `RRIRCRPPRLPRPRPRPCTIPRP` ; wanted: its shrunken log2 fold change
Result: 0.105

###

# System: Escherichia coli TOP10
# test.method.notes: shrunken log2 fold change of peptide-encoding DNA abundance (4.5 h post-induction vs induction); higher = less antimicrobial activity (less host growth inhibition)
# condition: time post-induction: 4.5 h; library: site-saturation at positions 5, 18, 19, 20
The sequences listed here are annotated with their shrunken log2 fold change.
No unit in the answer, only the number.

Request: Any idea what shrunken log2 fold change was measured for `RRIRGRPPRLPRPRPRPHIRPRP` ?
Result: 0.0682

Request: What value of measured shrunken log2 fold change is listed for `RRIRHRPPRLPRPRPRPEGKPRP` ?
Result: 0.082

Request: Query (sequence): `RRIRGRPPRLPRPRPRPVIHPRP` ; field requested: shrunken log2 fold change
Result: 0.0507

New cases:
Request: Would you mind telling me what shrunken log2 fold change value was observed for `RRIRCRPPRLPRPRPRPPGCPRP` ?
Result: 0.412

Request: Look at this sequence and give its reported shrunken log2 fold change. `RRIRLRPPRLPRPRPRPMNRPRP`
Result: -0.0112

Request: What value of shrunken log2 fold change has been reported for the following sequence? `RRIRDRPPRLPRPRPRPCTPPRP`
Result: -0.153

Request: Given the sequence `RRIRWRPPRLPRPRPRPYFLPRP` , what is its reported shrunken log2 fold change?
Result: -0.757

Request: Quick one: shrunken log2 fold change of `RRIRMRPPRLPRPRPRPYEHPRP` ?
Result: -0.291

###

# Tested on: Escherichia coli TOP10;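 further: peptides expressed intracellularly from a pBAD plasmid library in pooled LB shake-flask culture, induced with 0.3% L-arabinose, DNA abundance read by NGS, three biological replicates, DESeq2 with apeglm shrinkage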
# test.method.notes: shrunken log2 fold change of peptide-encoding DNA abundance (4.5 h post-induction vs induction); higher = less antimicrobial activity (less host growth inhibition)
# condition: time post-induction: 4.5 h; library: site-saturation at positions 5, 18, 19, 20
Labels assigned by shrunken log2 fold change range: LOW (below -0.1), MEDIUM (-0.1 to below 0.02), HIGH (0.02 or more)

Request: Category of `RRIRHRPPRLPRPRPRPNARPRP` , please.
Result: MEDIUM

Request: Form field 'band' for `RRIRMRPPRLPRPRPRPFLFPRP`
Result: HIGH

New cases:
Request: Determine which band this sequence sits in: `RRIRCRPPRLPRPRPRPMMYPRP`
Result: LOW

Request: Class for `RRIRTRPPRLPRPRPRPTICPRP` ?
Result: LOW

Request: Note: place this sequence into its band. Item: `RRIRTRPPRLPRPRPRPMQLPRP`
Result: LOW

Request: State the class of the sequence shown: `RRIRTRPPRLPRPRPRPLVMPRP`
Result: MEDIUM

Request: Could you place `RRIRERPPRLPRPRPRPLCSPRP` in its proper category? Many thanks.
Result: LOW
